Values of IC50 reported for NK-1 (Homo sapiens) appear below.

Check out these entries, answers already filled in.
[
  {
    "COMPOUND": "CC(OCC1(c2ccccc2)CCN(C)CC1)c1cc(C(F)(F)F)cc2c(C#N)n[nH]c12 (racemic)",
    "IC50": "0.01 to 100 nM"
  },
  {
    "COMPOUND": "C[C@@H](OCC1(c2ccc(F)cc2)CCN(C)CC1)c1cc(Cl)cc2cn(CC#N)nc12",
    "IC50": "0.01 to 100 nM"
  },
  {
    "COMPOUND": "CN1CCC(COCc2cc(Br)cc3ncn(CC4CC4)c23)(c2ccccc2)CC1",
    "IC50": "0.01 to 100 nM"
  },
  {
    "COMPOUND": "CN1CCC(COCc2nc3ccc(Br)cc3n2CC2CC2)(c2ccccc2)CC1",
    "IC50": "> 300 nM"
  },
  {
    "COMPOUND": "CC(OCC1(c2ccc(F)cc2)CCN(C)CC1)c1cc(C2CC2)cc2cn[nH]c12 (racemic)",
    "IC50": "0.01 to 100 nM"
  },
  {
    "COMPOUND": "CC(OCC1(c2ccc(F)cc2)CCN(C)CC1)c1cc(Cl)cc2c(Cl)n[nH]c12 (racemic)",
    "IC50": "0.01 to 100 nM"
  },
  {
    "COMPOUND": "CN1CCC(COCc2nc3cc(-c4ccc(C#N)cc4)ccc3n2CC2CC2)(c2ccccc2)CC1",
    "IC50": "> 300 nM"
  }
]

For this compound ( "N#Cc1ccc(-c2cc(COCC3(c4ccccc4)CCNCC3)c3[nH]ncc3c2)cc1" ), measured IC50 is 0.01 to 100 nM
